- study system: Torsin-1A-interacting protein 1 (Homo sapiens)
- measurement description: LAP1 binders from COS7 cell lysate, primary screen, small-molecule microarray, 635/667 nm fluorescence (AID 1116)
- measurement context: COS7-hLAP1 lysate binding, 635 nm fluorescence, higher = more signal
readout type: composite z-score
Numbers only.

compound: CN(C)C(=O)[C@@]1(Cc2ccccc2CN=[N+]=[N-])N=C(c2ccc(OCCCO)cc2)O[C@H]1c1ccccc1CN=[N+]=[N-]
composite z-score: 1.56

compound: C=CCC(OC(C)=O)[C@@H]1[C@@H](N(Cc2cccc3ccccc23)C(=O)c2cccc3ccccc23)c2cc(OCCCO)ccc2N1C(=O)c1ccc(-c2ccccc2)cc1 (some centres undefined)
composite z-score: 0.197

compound: C=CC1c2cc(O)c(OC)cc2CCN1Cc1cc2c(cc1Br)OCO2 (centres undefined)
composite z-score: 1.69

# input compound: COc1ccccc1CN1C(=O)c2ccccc2[C@](Cc2ccccc2I)(C(=O)NCC(F)(F)F)[C@@H]1c1ccc(CO)cc1 ; wanted: its composite z-score
1.42

---

- measurement description: modulators of HCV replicon luciferase signal, primary screen, HCV replication inhibitor project, Huh7 cells, luciferase reporter (AID 1109);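 note: huh7 hepatoma cells harbouring a luciferase neomycin HCV replicon reporter; luciferase luminescence as measure of HCV replicon replication; test concentration not given here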
- measurement context: 48 h, higher = more signal
readout type: z-score
Numbers only.

molecule: COC(=O)c1ccc([C@H](NC(=O)c2ccco2)[C@]2(C)C[C@H]2C2CCCCC2)cc1
measured number: -0.978
//
molecule: CCOC(=O)C[C@H]1[C@H](OC(=O)c2cc3ccccc3oc2=O)[C@@H](NC(=O)c2ccc(-c3ccccc3)cc2)c2cc(OCCCO)ccc2N1C(=O)c1ccccc1
measured number: -0.659
//
molecule: C=CCN1Cc2ccccc2[C@H]2OC(c3ccc(OCCCO)cc3)=N[C@@]2(CC=C)C1=O
measured number: -1.74

Give measured z-score for every item shown.
1. CCCCCCc1nc(C2CC2)cc2c1[Si](C(C)C)(C(C)C)OC2
2. OCCCC1=CC(c2ccc(CN3CCCC3)cc2)N(Cc2sc3ccccc3c2Cl)CC1 (stereo not drawn)
3. C=CCC(OC(C)=O)[C@@H]1[C@@H](N(Cc2cc3ccccc3o2)C(=O)c2ccc(-c3ccccc3)cc2)c2cc(OCCCO)ccc2N1C(=O)c1ccc2ccccc2c1 (stereo partly drawn)
4. CCCCCCCCCCC(O)C1C=CC2C(=O)N(C)C(=O)C2N1Nc1ccc([N+](=O)[O-])cc1[N+](=O)[O-] (stereo not drawn)

[-0.622, -4.17, -1.48, -1.06]

# input molecule: CC(C)C(=C=CC[C@H](O)c1ccc(OCCO)cc1)C[C@H](O)c1ccccn1 ; wanted: its z-score
-0.789

---

- study system: Torsin-1A-interacting protein 2 (Homo sapiens)
- measurement description: LULL1 binders on small-molecule microarray, primary screen, cell lysate, human LULL1 lysate, 635/667 nm fluorescence (AID 1092);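 note: probe is lysate of COS7 cells overexpressing human LULL1; score merges per-feature 667 nm fluorescence with signal-to-noise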
- measurement context: hLULL1 lysate binding, 635 nm fluorescence, higher = more signal
readout type: composite z-score

compound: CCOC(=O)c1ccc(NC(=O)O[C@H]2[C@H](OC(=O)Nc3ccc4c(c3)OCO4)[C@H](OC(=O)Nc3ccc4c(c3)OCO4)[C@@H](OC)O[C@@H]2CO)cc1
readout type: composite z-score
result: 3.1

Give measured composite z-score for every item shown.
1. CC(C)C[C@@H]1NC(=O)[C@@H]2C[C@H](C(=O)NCCCCCN)[C@H](c3ccc(O)cc3)N2C1=O
2. CCCC[C@@H]1C[C@H]1[C@@H](NC(=O)c1cccs1)c1ccc(C(F)(F)F)cc1
3. COc1ccc(-c2cc3c(c(CCc4ccccc4)n2)[Si](C(C)C)(C(C)C)OC3)cn1
4. CN(C)CCCNC(=O)[C@@H]1c2ccccc2C(=O)N(Cc2ccccc2Cl)[C@H]1c1ccc(CO)cc1
5. COCCOC(=O)N1C(=O)[C@@]2(c3cc(C#CCC(C(=O)OC)C(=O)OC)ccc31)[C@H](C(=O)N1CCc3cc(OC)c(OC)cc3C1)[C@H]1C(=O)O[C@H](c3ccccc3)[C@H](c3ccccc3)N1[C@@H]2c1ccc(OCCO)cc1
6. CCOC(=O)C1CCCCN1 (stereo not drawn)

[2.57, -0.683, 0.781, 2.25, 2.73, 1.16]

# input compound: CCCCC(=C=CC[C@@H](O)c1ccccc1OCCO)C[C@@H](O)COCc1ccccc1 ; wanted: its composite z-score
1.91

---

- measurement description: binders of probe aFSTL3 on microarray, primary screen, stem cell growth factor project, biochemical, small-molecule microarray, fluorescence 635/667 (AID 1064);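 note: measures binding of the biotinylated anti-FSTL3 antibody to printed compounds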
- measurement context: higher = more signal
readout type: composite z-score
Answers are plain numbers.

Below, each entry is followed by its recorded composite z-score result.
compound: CCCC[C@@H](O)C1=C(COc2ccccc2)C[C@H]2C(=O)N(C)C(=O)[C@H]2[C@H]1CO
readout type: composite z-score
measured number: -0.417
//
compound: CCCNC(=O)[C@@]1(c2ccc([N+](=O)[O-])cc2)CC(=O)N(C2CCCCC2)[C@@H]1c1ccc(CO)cc1
readout type: composite z-score
measured number: -0.0597
//
compound: COCCCNC(=O)[C@@]1(Cc2ccccc2N=[N+]=[N-])N=C(c2ccc(OCCCO)cc2)O[C@H]1c1ccccc1
readout type: composite z-score
measured number: 0.6

Now consider a different compound.
# input compound: CC(CO)N1C(=O)[C@@H]2[C@H]3C(=O)OCC=C[C@H]3OC23C=CCN(CCN2CCOCC2)C(=O)[C@@H]13 (some centres undefined) ; wanted: its composite z-score
-0.979

---

- measurement description: HepG2 liver cancer cell viability effects, profiling panel, resazurin fluorescence, 24 h, PK04 Diversity Set (AID 1172); note: test concentration not given here
- measurement context: higher = more signal
readout type: z-score
Answers are plain numbers.

compound: CCOC(=O)C[C@H]1[C@H](OC(=O)c2ccc(C(=O)c3ccccc3)cc2)[C@@H](NC(=O)Cc2ccc(OC)cc2)c2cc(OCCCO)ccc2N1C(=O)c1ccccc1
readout type: z-score
measured number: 0.0566
--
compound: COc1ccc([Si](C)(C)[C@H]2[C@H](CC(=O)N(CCO)Cc3ccccc3)O[C@@]3(C(=O)N(Cc4cccc(N5CCOC5=O)c4)c4ccccc43)[C@@H]2C)cc1
readout type: z-score
measured number: -2.5

Give measured z-score for every item shown.
1. CN(C)CCCCNC(=O)[C@@H]1C[C@@H]2C(=O)N[C@@H](Cc3ccccc3)C(=O)N2[C@@H]1c1cccc(OCCO)c1
2. COc1ccc(C#Cc2ccc3c(c2)[C@]2(C(=O)N3)[C@H](c3ccc(O)cc3)N3[C@H](c4ccccc4)[C@H](c4ccccc4)OC(=O)[C@H]3[C@@H]2C(=O)O)cc1
3. CN(C)C(=O)[C@@]1(Cc2ccccc2CN=[N+]=[N-])N=C(c2ccc(OCCCO)cc2)O[C@H]1c1ccccc1CN=[N+]=[N-]
4. C=C(COC)/C(=C/C[C@H](OC(C)=O)c1ccc(OCCO)cc1)c1cc(C(=O)OC)ccc1OC
5. CN1C(=O)C2C=CC(C(O)c3cccc(O)c3)N(Nc3ccccc3)C2C1=O (configuration not stated)

[0.225, 0.275, -1.43, 1.26, 0.0748]

---

- measurement description: PSAC antagonists in infected red cells, primary screen, cell-based, P. falciparum Indochina, OD700, 18 h (AID 1157)
- measurement context: P. falciparum Indochina infected erythrocytes, osmotic lysis OD700, 18 h; higher = more signal, called active from +8 up or from −8 down
Output schema: class label derived from z-score. Mapping: Low (below 0.2), Medium (0.2 to below 0.9), High (0.9 or more)

Known results for compounds:
compound: C=CCOC(=O)[C@H]1[C@@H]2C(=O)O[C@@H](c3ccccc3)[C@@H](c3ccccc3)N2[C@@H](c2ccc(OCCOC(=O)[C@H]3C[C@H]4C(=O)N[C@@H](CC(C)C)C(=O)N4[C@H]3c3cccc(OCCO)c3)cc2)[C@]12C(=O)Nc1ccc(I)cc12
answer label: High

compound: CC(CO)N1C(=O)[C@@H]2[C@H]3C(=O)OCC=C[C@H]3OC23C=CCN(CCN2CCOCC2)C(=O)[C@@H]13 (stereo partly drawn)
answer label: Low

compound: CCCC[C@@H](O)C1=C(COc2ccccc2)C[C@H]2C(=O)N(C)C(=O)[C@H]2[C@H]1CO
answer label: Low

compound: NC(=O)NCC#Cc1ccc2c(c1)[C@]1(C(=O)N2)[C@H](C(=O)NC[C@H](O)c2ccccc2)[C@H]2C(=O)O[C@H](c3ccccc3)[C@H](c3ccccc3)N2[C@@H]1c1ccc(OCCO)cc1
answer label: Medium

compound: COC(=O)c1c2oc(c1C(=O)OC)C(=O)N(Cc1ccccc1)Cc1cn(nn1)C[C@H](Cc1ccccc1)NC(=O)N[C@H](CO)CC2
answer label: Medium

compound: O=C1O[C@H](c2ccccc2)[C@H](c2ccccc2)N2[C@H]1[C@@H](C(=O)Nc1nc3ccccc3s1)[C@]1(C(=O)Nc3ccc(C#CC4(O)CCCCCC4)cc31)[C@H]2c1ccccc1OCCO
answer label: High

compound: O=C(NCCCCCNC(=O)/C(Cc1ccccc1)=N/O)OCc1ccccc1
answer label: Low

compound: O=C1OCCC/C=C\[C@H]2OC34C=CCN(CCN5CCOCC5)C(=O)[C@H]3N(CCCCCCO)C(=O)[C@@H]4C12 (stereo partly drawn)
answer label: Low

Class for CC1CC/C=C\[C@H]2OC34C=CCN(C(C)C)C(=O)[C@H]3N(CCCCCCO)C(=O)[C@@H]4C2C(=O)O1 (stereo partly drawn) ?
Low

Class for O=C1C2C=CC(C(O)c3ccc(Br)cc3)N(Nc3ccccc3F)C2C(=O)N1c1ccccc1 (stereo not drawn) ?
Low
